Each recorded value in this set is attributed to patent US20240279318A1.

- targetSystem: T1, AFP158/HLA-A*02:01 complex (human)
- T1 construct: biotinylated on the BSP by BirA for ELISA and panning; also called biotinylated AFP158/HLA-A*02:01 complex; Bio-AFP158
- protocolDetails: SPR, scFv-mIgG2aFc from supernatant captured, complex as analyte
Each entry below carries its reported kon.

- binder: "AS179732 VL1g1VH1 scFv-mIgG2aFc (Fc fusion, not shown: a dimerising Fc or GST; small tags and cut ends) scFv: QSVLTQPPSASGTPGQRVTISCSGSSSNIGGNYVNWYQQLPGTAPKLLIYDNSNRASGVPDRFSGSKSGTSASLAISGLQSEDEADYYCASWDDSLSGAVFGGGTKLTVLGGGGSGGGGSGGGGSEVQLVESGGGLVQPGGSLRLSCAASGFTFLNYAMSWVRQAPGKGLEWVSSNSGAGSTYYSDSVKGRFTISRDNSKNTLYLQMNSLRAEDTAVYYCAKGTNVGSWSSLHYWGQGTLVTVSS"
  units: "M⁻¹ s⁻¹"
  kon: 120000
- binder: "AS179732 VL1g1VH1g1 scFv-mIgG2aFc (Fc fusion, not shown: a dimerising Fc or GST; small tags and cut ends) scFv: QSVLTQPPSASGTPGQRVTISCSGSSSNIGGNYVNWYQQLPGTAPKLLIYDNSNRASGVPDRFSGSKSGTSASLAISGLQSEDEADYYCASWDDSLSGAVFGGGTKLTVLGGGGSGGGGSGGGGSEVQLVESGGGLVQPGGSLRLSCAASGFTFLNYAMSWVRQAPGKGLEWVSSNSGAGSTYYADSVKGRFTISRDNSKNTLYLQMNSLRAEDTAVYYCAKGTNVGSWSSLHYWGQGTLVTVSS"
  units: "M⁻¹ s⁻¹"
  kon: 130000
- binder: "AS179732 VL1VH1 scFv-mIgG2aFc (Fc fusion, not shown: a dimerising Fc or GST) scFv: QSVLTQPPSASGTPGQRVTISCTGSSSNIGGNYVNWYQQLPGTAPKLLIYDNSNRASGVPDRFSGSKSGTSASLAISGLQSEDEADYYCASWDDSLSGAVFGGGTKLTVLGGGGSGGGGSGGGGSEVQLVESGGGLVQPGGSLRLSCAASGFTFLNYAMSWVRQAPGKGLEWVSSNSGAGSTYYSDSVKGRFTISRDNSKNTLYLQMNSLRAEDTAVYYCAKGTNVGSWSSLHYWGQGTLVTVSS"
  units: "M⁻¹ s⁻¹"
  kon: 130000
- binder: "AS179732 scFv-mIgG2aFc (Fc fusion, not shown: a dimerising Fc or GST, Camel scFv; i647-labelled for flow cytometry) NFMLTQPPSMSGSPRQSVTISCTGSSSNIGGNYVNWYQHLPGTAPKLLIYDNSNRASGVPERFSGSKSGSSASLTITGLQAEDEGDYYCASWDDSLSGAVFGGGTHLTVLGGGGSGGGGSGGGGSEVQLVESGGGLVQPGGSLRLSCAASGFTFLNYAMSWVRQAPGKGLEWVSSNSGAGSTYYSDSVKGRFTISRDYAKNVVYLQLNSLKTEDTGMYYCAKGTNVGSWSSLHYWGQGTQVTVSS"
  units: "M⁻¹ s⁻¹"
  kon: 160000
